Attribute: pEC50
- Tested on: Human venous whole blood
- assay.text: Human whole blood IFN-γ assay;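 note: blood from healthy donors exposed to compound for 1 h before stimulation with anti-CD3 and anti-CD28 at 1 µg/mL each, IFN-γ quantified in supernatant by AlphaLISA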
- Type: cell-based
- experimental.context: Homo sapiens, 24 h, human whole blood, anti-CD3 plus anti-CD28, 24 hours; 3 μM reference compound = 100% activation; read-out: INFg Whole Blood Normalized Agonist EC50
pEC50: −log10 of the molar value.
measured.quantity: pEC50

• C[C@@H]1CN(c2c(C#N)c(=O)n(C)c3ccc(C#N)nc23)CCN1Cc1cccc(C#N)n1 = 4.70
• C[C@@H]1CN(c2cc(=O)n(C)c3ccc(C#N)nc23)[C@@H](C)CN1C(c1ccc(F)cc1)c1nc(C(C)(C)C)no1 (stereo partly shown) = 7.37
• Cc1ccc(C(c2ncccc2F)N2CCN(c3c(C#N)c(=O)n(C)c4ccc(C#N)nc34)C[C@H]2C)cc1 (single isomer, unassigned) = 5.18
• C[C@@H]1CN(c2cc(=O)n(C)c3ccc(C#N)nc23)[C@@H](C)CN1C(c1ccc(F)cc1)c1csc(C2CC2)n1 (single isomer, unassigned) = 6.35
• CC(c1ccc(F)cc1)N1C[C@H](C)N(c2c(C#N)c(=O)n(C)c3ccc(C#N)nc23)C[C@H]1C (single isomer, unassigned) = 5.96
• C[C@@H]1CN(c2c(C#N)c(=O)n(C)c3ccc(C#N)nc23)CCN1Cc1ccc(F)cc1F = 5.01
• CC(c1ccc(Cl)cc1)N1CCN(c2c(C#N)c(=O)n(C)c3ccc(C#N)nc23)C[C@H]1C (single isomer, unassigned) = 4.70
• Cc1ccc(C(C)N2CCN(c3c(C#N)c(=O)n(C)c4ccc(C#N)nc34)C[C@H]2C)cc1 (single isomer, unassigned) = 5.52
• C[C@@H]1CN(c2cc(=O)n(C)c3ccc(C#N)nc23)[C@@H](C)CN1C(c1ccc(F)cc1)c1cnn(C2CC2)c1 (single isomer, unassigned) = 5.82
• C[C@@H]1CN(c2cc(=O)n(C)c3ccc(C#N)nc23)[C@@H](C)CN1C(c1ccc(F)cc1)c1nnc(C2CC2)[nH]1 (single isomer, unassigned) = 5.46
• C[C@@H]1CN(c2c(C#N)c(=O)n(C)c3ccc(C#N)nc23)CCN1Cc1ccc(-c2ccccc2)cc1 = 4.70
• C[C@@H]1CN(c2c(C#N)c(=O)n(C)c3ccc(C#N)nc23)[C@@H](C)CN1C(c1ccc(F)cc1)c1cn(C)cn1 (single isomer, unassigned) = 4.70
• C[C@@H]1CN(c2c(C#N)c(=O)n(C)c3ccc(C#N)nc23)[C@@H](C)CN1C(c1ccc(F)cc1)c1cccc(C(F)(F)F)n1 (single isomer, unassigned) = 5.57
• C[C@@H]1CN(c2c(C#N)c(=O)n(C)c3ccc(C#N)nc23)[C@@H](C)CN1C(c1ccc(F)cc1)c1nc(C2CC2)no1 (single isomer, unassigned) = 6.14
• C[C@@H]1CN(c2c(C#N)c(=O)n(C)c3ccc(C#N)nc23)CCN1C(c1ccc(F)cc1)c1cnn(C)c1 (stereo partly shown) = 5.48
• Cc1noc(C(c2ccc(F)cc2)N2C[C@H](C)N(c3cc(=O)n(C)c4ccc(C#N)nc34)C[C@H]2C)n1 (stereo partly shown) = 5.96
• C[C@@H]1CN(c2c(C#N)c(=O)n(C)c3ccc(C#N)nc23)CCN1C(c1ccccc1)c1cc(F)cc(F)c1 (single isomer, unassigned) = 5.51
• Cc1ccc(C(c2ccc(F)cc2)N2CCN(c3c(C#N)c(=O)n(C)c4ccc(C#N)nc34)C[C@H]2C)cc1 (stereo partly shown) = 5.92
• Cc1ccc(CN2CCN(c3c(C#N)c(=O)n(C)c4ccc(C#N)nc34)C[C@H]2C)cc1F = 5.26
• C[C@@H]1CN(c2c(C#N)c(=O)n(C)c3ccc(C#N)nc23)[C@@H](C)CN1C(c1ccc(F)cc1)c1cc(C2CC2)on1 (single isomer, unassigned) = 5.66
• COC(=O)c1cccc(C(C)N2C[C@H](C)N(c3c(C#N)c(=O)n(C)c4ccc(C#N)nc34)C[C@H]2C)c1 (single isomer, unassigned) = 4.70
• C[C@@H]1CN(c2cc(=O)n(C)c3ccc(C#N)nc23)[C@@H](C)CN1C(c1ccc(F)cc1)c1nnnn1C(C)(C)C (single isomer, unassigned) = 5.07
